# experimental_protocol: amyloid nucleation score (Sup35N fusion, yeast selection) (log enrichment); library NNK2; higher = more nucleation; inactive = no reads after selection;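 also: zero at mode of non-aggregating sequences after 7 days selection at 30°C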
readout: amyloid nucleation score

ISLIFCNSTRIYKFLLMFSW ... inactive
YYGLVSGGLQYVCMFGSFIY ... inactive
NMPHPHEFIRSPCICLRHVV ... inactive
RGCGFRIDVGKRWRNRIKSV ... inactive

---

# experimental_protocol: amyloid nucleation score (Sup35N fusion, yeast selection) (log enrichment); library NNK3; higher = more nucleation; inactive = no reads after selection
readout: amyloid nucleation score

Solved cases (10 shown):
NHQLGIGYFCDTYLCDHWDP ... inactive
SKAYKAYNVLRLISI ... inactive
QVLCWFISTADLLLAK ... inactive
HSMNHFIWLVFKMVSYVACV ... inactive
VVTEVSSLSSTGGSFVWLCR ... inactive
NYPSYSMHNDIFYAFNFSIS ... 2.17
YWGKRSF ... inactive
CYMADNVLVGFTFVGIQEMK ... inactive
FVGYINILLIADSALGVRIL ... 1.64
RMLLVEYCMFDFPDSFVRCN ... 0.131

# get_value(readout='amyloid nucleation score', item= `ICELLRFDPMLTCFRM` ) 0.77

Next substance up: `FCTVNH` inactive

Next entry: `GLNMVWFVHLSVNV` inactive

Can you check `MLFRLRSAYHTASDVDANDD` next? inactive

Now the same for `SSLIGRVDRIMYVSARERTI` inactive

How about this substance: `GSVSPGNSILICFWFFWLLW` inactive

# iterate: `NVIGPSNRVTSWMVKSMQMY` inactive
